Reported inhibition values are given for each entry in this list.
# method summary: NOD1 signaling inhibitors, primary screen, cell-based, luminescence, uHTS (AID 1578);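 note: HEK-293T reporter cells stimulated with the NOD1 agonist gamma-tri-DAP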
# test context: NOD1-driven NF-kB luciferase reporter cells, at 4 µM, hits give high values
Hit rate of the full screen: of about 290,000 compounds, about 3,000 (1%) were called active. Shown is part of a subset that was picked to be rich in actives.
Write the value in % as a bare number.

Some solved entries appear below for comparison.
compound	inhibition [%]
CC(C)N=C(NS(=O)(=O)c1ccccc1)C(Cl)(Cl)Cl	62.8
CN(C)CCNC(=O)c1c(CSc2ccccc2)noc1C(=O)NCc1ccccc1	-3.7
CCN(CC)S(=O)(=O)c1ccc(OC)c(NC(=O)CC2CCCC2)c1	-26.7
O=C(NC(=S)N(CCc1ccccc1)CCc1ccccc1)c1ccco1	97.6
COc1ccc(CNc2cccc3[nH]c(C(F)(F)F)nc23)cc1OC	-14.9
O=C(NC(=S)NCCc1ccccc1)c1ccco1	-69.5
O=C1COc2ccc(S(=O)(=O)NCc3ccccc3)cc2N1	-13.7
CN(C)S(=O)(=O)c1ccc(Cl)c(NC(=O)COC(=O)CN2C(=O)C3CCCCC3C2=O)c1 (stereo unspecified)	-45.6

Exam item: If you can, please state the reported inhibition value of CC(CCc1ccccc1)NC(=S)NC(=O)c1ccco1 (stereo unspecified) .
Marked response: -37

Exam item: Also, "Cc1ccc(S(=O)(=O)NC(=NC(C)C)c2ccccc2)cc1" please.
Marked response: -28.2

Exam item: Also, "COc1cc(CNc2cccc3[nH]c(C(F)(F)F)nc23)cc(OC)c1" please.
Marked response: 33

----------
# method summary: NOD1 signaling inhibitors, primary screen, cell-based, luminescence, uHTS (AID 1578);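 note: HEK-293T reporter cells stimulated with the NOD1 agonist gamma-tri-DAP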
# test context: NOD1-driven NF-kB luciferase reporter cells, at 4 µM, hits give high values
Out of some 290,000 compounds screened, about 3,000 (1%) were called active. The sample holds actives, similar compounds and a random draw of the others, so the mix is not that of the screen.
Assign class by inhibition: not lower than 10% means 1; lower than 10% means -1.

Observe how each entry below is paired with its result.
compound	group
CC1(C)CC(=O)C=C(NC2=CC3OC(c4ccccc4)OCC3OC2=O)C1 (stereo not given)	1
CCN1C(=NCC(C)C)N[C@@H](c2cccc(C(F)(F)F)c2)C(C(=O)OC)=C1C	-1
COc1c(Cl)cc(-c2noc(C)c2C(=O)NCCc2ccc(C)cc2)cc1Cl	-1
CN1C(=S)SC(/[N+]([O-])=C/c2ccc(Cl)cc2)C1(C)C (stereo not given)	1
CCO[C@H]1OC(C(=O)NC2CC2)=C[C@@H](c2ccc(C(F)(F)F)cc2)[C@@H]1CCCO	-1
Cc1ccc(/C=[N+](/[O-])C2SC(=S)N(C)C2(C)C)cc1 (stereo not given)	-1

Here is the next item to consider.
Exam item: Please check the record "CCN1CCS/C1=C\C=C\C1=[N+](CC)CCS1" and state if its inhibition is at or above 10%.
Marked response: 1

----------
# method summary: NOD1 signaling inhibitors, primary screen, cell-based, luminescence, uHTS (AID 1578);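 note: HEK-293T reporter cells stimulated with the NOD1 agonist gamma-tri-DAP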
# test context: NOD1-driven NF-kB luciferase reporter cells, at 4 µM
Out of some 290,000 compounds screened, about 3,000 (1%) were called active. Cut-off read from the data, not from the text of the source: active = inhibition mostly above about 36% (no sharp cut-off); inactive = mostly below about 34%. The list comes from a sample in which actives are over-represented; it also holds close analogues and randomly drawn compounds.
Pick from 1 (yes) for active, 0 (no) for inactive when you respond.

Observe how each entry below is paired with its result.
compound	group
N#C/C(=C\C=C\c1ccccc1[N+](=O)[O-])C(=O)NCc1ccccc1	1 (yes)
O=C(Oc1ccc2c(-c3ccccc3)cc(=O)oc2c1)C1CCCCC1	0 (no)
CCN1CCN(Cc2ccc(C(=O)Nc3ccc(C)c(NCc4cnc(NC(=O)OC)cn4)c3)cc2C(F)(F)F)CC1	0 (no)
N#C/C(=C\c1ccccc1[N+](=O)[O-])C(=O)NCc1ccccc1	0 (no)
CCOC(=O)C1=C(N)Oc2cc(O)ccc2C1c1ccc(C)cc1 (centres undefined)	0 (no)
Cc1cc(-c2nc3cccnc3s2)ccc1NS(=O)(=O)c1ccc2c(c1)OCCO2	0 (no)
COc1ccc(-c2cc(=O)oc3cc(OC(=O)C4CCCCC4)ccc23)cc1	1 (yes)
O=C(O)/C=C/c1ccccc1[N+](=O)[O-]	0 (no)

Exam item: Answer briefly: the call reported for CCOC(=O)C1=C(N)Oc2cc(O)ccc2C1c1cccc([N+](=O)[O-])c1 (centres undefined) in this assay.
Marked response: 0 (no)

----------
# method summary: NOD1 signaling inhibitors, primary screen, cell-based, luminescence, uHTS (AID 1578);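 note: HEK-293T reporter cells stimulated with the NOD1 agonist gamma-tri-DAP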
# test context: NOD1-driven NF-kB luciferase reporter cells, at 4 µM, hits give high values
The campaign covered roughly 290,000 compounds. About 3,000 (1%) were called active. The sample holds actives, similar compounds and a random draw of the others, so the mix is not that of the screen.
Reported inhibition values are given for each entry in this list.
Write the value in % as a bare number.

Some solved entries appear below for comparison.
compound	numeric result
COC(=O)c1cn(CCOc2ccccc2)c2ccccc12	-11.9
CCC1(c2ccccc2)NC(=O)N(CC(=O)NCc2ccccc2OC)C1=O (configuration not stated)	0.8
Cc1cc(C)[n+](-c2ccc(C(C)C)cc2)c2[nH]c(=O)[nH]c(=O)c12	-20.8

// next entry
Exam item: If you can, please state the reported inhibition value of "COc1cccc(NS(=O)(=O)c2cc3c(cc2C)N(C)CCO3)c1" .
Marked response: -2.7

----------
# method summary: NOD1 signaling inhibitors, primary screen, cell-based, luminescence, uHTS (AID 1578);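 note: HEK-293T reporter cells stimulated with the NOD1 agonist gamma-tri-DAP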
# test context: NOD1-driven NF-kB luciferase reporter cells, at 4 µM
Hit rate of the full screen: of about 290,000 compounds, about 3,000 (1%) were called active. No stated cut-off is given here; in the data, active means inhibition mostly above about 36% (no sharp cut-off); inactive means mostly below about 34%. The full list was thinned out, with actives kept by preference.
Pick from active, inactive when you respond.

Exam item: Answer briefly: the call reported for CCOC1(OCC)C(c2ccc(Cl)cc2)C(C#N)(C#N)C1(OCC)OCC (stereo not given) in this assay.
Marked response: inactive

Exam item: Also, "O=C(NCCCCc1ccccc1)Nc1ccc(F)cc1" please.
Marked response: inactive

Exam item: Also, COc1ccc(NC2CCCN(C(=O)CCCN3CCCCC3=O)C2)cc1 (stereo not given) please.
Marked response: inactive

----------
# method summary: NOD1 signaling inhibitors, primary screen, cell-based, luminescence, uHTS (AID 1578);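 note: HEK-293T reporter cells stimulated with the NOD1 agonist gamma-tri-DAP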
# test context: NOD1-driven NF-kB luciferase reporter cells, at 4 µM, hits give high values
The campaign covered roughly 290,000 compounds. About 3,000 (1%) were called active. This is one part of a sample in which actives are shown more often than they occur.
property label: inhibition (%)
Write the value in % as a bare number.

compound	unit info	inhibition
O=C1C(Cl)=C(NCCCO)C(=O)c2ccccc21	%	-20.7
O=C(CCCCCn1c(=S)[nH]c2ccc(N3CCOCC3)cc2c1=O)NCc1ccccc1	%	2.3
O=C(COc1ccccc1)OC(C(=O)c1ccccc1)c1ccccc1 (stereo unspecified)	%	-26.7
O=C(Cn1nnc2ccccc21)N/N=C\c1cccs1	%	-35.5
Cc1nc2ccccn2c1-c1ccnc(SCc2ccc(Cl)cc2)n1	%	37.7
Cc1cccc(N2CCN(C(=O)CCCn3c(=S)[nH]c4cc5c(cc4c3=O)OCO5)CC2)c1C	%	2.8

// next entry
Exam item: If you can, please state the reported inhibition value of "Cc1ccc(NC(=O)Cn2c(=O)cnc3ccccc32)cc1S(=O)(=O)N(C)C" .
Marked response: -22.2

----------
# method summary: NOD1 signaling inhibitors, primary screen, cell-based, luminescence, uHTS (AID 1578);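 note: HEK-293T reporter cells stimulated with the NOD1 agonist gamma-tri-DAP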
# test context: NOD1-driven NF-kB luciferase reporter cells, at 4 µM, hits give high values
Among all 290,000 compounds or so, about 3,000 (1%) were called active. This excerpt belongs to a sample that is enriched for actives.
Reported inhibition values are given for each entry in this list.
Write the value in % as a bare number.

Some solved entries appear below for comparison.
compound	inhibition / %
CC(=O)Nc1ccc(NC2=Nc3ccccc3N3C2=Nc2c(c(C)nn2-c2ccccc2)C3c2ccccc2)cc1 (stereo not given)	99
COc1ccc(NC(=O)c2ccccc2NC(=O)NC2CCCCC2)cc1	-14.5

Exam item: If you can, please state the reported inhibition value of O=S(=O)(CC(CN1CCCCC1)N1CCCCC1)c1ccc2ccccc2c1 (stereo not given) .
Marked response: -6.3

----------
Reported inhibition values are given for each entry in this list.
# method summary: NOD1 signaling inhibitors, primary screen, cell-based, luminescence, uHTS (AID 1578);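 note: HEK-293T reporter cells stimulated with the NOD1 agonist gamma-tri-DAP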
# test context: NOD1-driven NF-kB luciferase reporter cells, at 4 µM, hits give high values
Out of some 290,000 compounds screened, about 3,000 (1%) were called active. What follows is part of a selection rich in actives, with near analogues and random picks from the rest.
Write the value in % as a bare number.

Some solved entries appear below for comparison.
compound	unit info	inhibition
Cc1cc(C)c(NC(=O)COC(=O)c2cc([N+](=O)[O-])ccc2N2CCOCC2)c(C)c1	%	-25.6
CCc1c(C)c(C#N)c2nc3ccccc3n2c1N(C)C	%	2
CCCCCc1c(C)c(C#N)c2nc3ccccc3n2c1-n1ccnc1C	%	15.8
CCc1c(C)c(C#N)c2nc3ccccc3n2c1Cl	%	62.6
N#Cc1c(-c2ccccc2)c(C#N)c2nc3ccccc3n2c1N	%	37.8
CCC(NC(=O)c1ccccc1NC(=O)c1ccccc1)C(=O)NNC(=O)c1cccnc1 (stereo unspecified)	%	-7.6
OCCN1CCN(c2cc(C(F)(F)F)nc3ccccc23)CC1	%	-6.8
O=C(/C=C/NCc1cccnc1)C(F)(F)C(F)(F)F	%	-53

Exam item: If you can, please state the reported inhibition value of "CCCCc1c(C)c(C#N)c2nc3ccccc3n2c1NCCN(C)C" .
Marked response: -4.5

Exam item: Also, "Cc1cc(Cl)n2c(nc3ccccc32)c1C#N" please.
Marked response: -29.7

Exam item: Also, COc1cccc(C2CC(c3cccs3)=NN2S(C)(=O)=O)c1OC (stereo unspecified) please.
Marked response: -30.3
